Counter-ions that a name gives are not always drawn.
assay readout: melting point

# annotated cases, reported melting point shown
>>> print(df.to_string())
                                   molecule  assay_readout         result
0  Cl.Cn1c(SCCCNCC2CCc3cc(Br)ccc3C2)nnc1-c1ccccc1 (stereo not drawn)  melting point   88 °C (dec.)
1  COc1ccc2c(c1)CC(CCCNCCCSc1nnc(-c3ccccc3)n1C)CC2 (stereo not drawn) (as salt: HCl) [Example 18]  melting point    92 to 95 °C
2  Cc1ncsc1-c1nnc(SCCCNCCCC2CCc3ccc(F)cc32)n1C.Cl (stereo not drawn)  melting point         123 °C
3  Cc1ccc2c(c1)CCC(NCCCSc1nnc(-c3ccccc3)n1C)C2 (stereo not drawn) [Example 4]  melting point    69 to 73 °C
4  CCOC(=O)c1nnc(SCCCNC2Cc3ccccc3C2)n1C (as salt: HCl) [Example 25]  melting point  135 to 139 °C

Look up and state reported melting point for COc1cc2c(cc1OC)C(NCCCSc1nnc(-c3ccccc3)n1C)CC2.Cl (stereo not drawn)
201 to 202 °C
